Reported MA is given for each of the following compounds.
TESTED_SYSTEM: Low-density lipoprotein receptor (Homo sapiens)
ASSAY_NOTES: Capability of derepressing the transcription of Low density lipoprotein receptor promoter in the presence of 25-hydroxycholesterol in CHO cells measured as maximum activity at 20 ug/mL
Type: cell-based
Enter your answer as a number in %; do not include the unit.

CCC[C@H]1C2CC[C@H]3[C@@H]4CC[C@H]([C@H](C)CCCC(C)C)[C@@]4(C)CC[C@@H]3[C@@]2(C)CC[C@H]1O (stereo partly specified) : 48
C=C(C)C[C@H]1C2CC[C@H]3[C@@H]4CC[C@H]([C@H](C)CCCC(C)C)[C@@]4(C)CC[C@@H]3[C@@]2(C)CC[C@H]1O (stereo partly specified) : 124
CC(C)CCC[C@@H](C)[C@H]1CC[C@H]2[C@@H]3CCC4[C@H](C/C=C/Cl)[C@H](O)CC[C@]4(C)[C@H]3CC[C@]12C (stereo partly specified) : 169
C=C(C)C[C@H]1C2CC[C@H]3[C@@H]4CC[C@H]([C@H](C)CC[C@@H](CC)C(C)C)[C@@]4(C)CC[C@@H]3[C@@]2(C)CC[C@H]1O (stereo partly specified) : 165
C=CC[C@@H]1C[C@@]2(C)C(CC[C@H]3[C@@H]4CC[C@H]([C@H](C)CCCC(C)C)[C@@]4(C)CC[C@@H]32)C[C@@H]1O (stereo partly specified) : 60

Would you kindly look at the next entry?
The compound identified as CC(C)CCC[C@@H](C)[C@H]1CC[C@H]2[C@@H]3CCC4[C@H](Cc5ccc(OC(F)(F)F)cc5)[C@H](O)CC[C@]4(C)[C@H]3CC[C@]12C (stereo partly specified) registered its MA at 71

* * *

TESTED_SYSTEM: Low-density lipoprotein receptor (Homo sapiens) (UniProt P01130)
Sequence (P01130 whole entry): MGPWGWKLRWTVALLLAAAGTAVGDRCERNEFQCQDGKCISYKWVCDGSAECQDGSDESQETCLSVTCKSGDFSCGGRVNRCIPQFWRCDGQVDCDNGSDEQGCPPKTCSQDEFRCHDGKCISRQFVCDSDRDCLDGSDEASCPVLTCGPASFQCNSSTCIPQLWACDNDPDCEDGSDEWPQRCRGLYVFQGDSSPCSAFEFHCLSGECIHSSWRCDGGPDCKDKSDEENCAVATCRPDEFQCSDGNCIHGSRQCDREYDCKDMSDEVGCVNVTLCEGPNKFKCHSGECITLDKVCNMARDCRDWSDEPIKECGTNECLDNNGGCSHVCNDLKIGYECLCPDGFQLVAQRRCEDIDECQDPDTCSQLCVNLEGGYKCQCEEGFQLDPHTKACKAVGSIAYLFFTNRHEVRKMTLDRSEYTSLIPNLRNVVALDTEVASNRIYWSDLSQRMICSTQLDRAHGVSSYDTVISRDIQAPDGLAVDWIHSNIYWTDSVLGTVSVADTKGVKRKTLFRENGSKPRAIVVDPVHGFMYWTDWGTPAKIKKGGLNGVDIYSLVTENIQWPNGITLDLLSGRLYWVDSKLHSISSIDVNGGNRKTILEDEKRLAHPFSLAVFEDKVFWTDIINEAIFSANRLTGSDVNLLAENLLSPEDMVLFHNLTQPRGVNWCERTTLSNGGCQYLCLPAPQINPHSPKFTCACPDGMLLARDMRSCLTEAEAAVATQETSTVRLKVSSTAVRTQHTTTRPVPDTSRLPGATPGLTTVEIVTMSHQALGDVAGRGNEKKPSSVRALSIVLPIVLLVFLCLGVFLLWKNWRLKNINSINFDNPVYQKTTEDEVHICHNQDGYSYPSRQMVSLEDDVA
ASSAY_NOTES: Capability of derepressing the transcription of human Low density lipoprotein receptor promoter in the presence of 25-hydroxycholesterol in CHO cells by luciferase assay; NA= Not active within the test range 0-20 ug/mL
Assay type: cell-based
The source made the active and inactive calls. No cut-off for these calls is given here.
EXPERIMENTAL_ENDPOINT: EC30

CC(C)CCC[C@@H](C)[C@H]1CC[C@H]2[C@@H]3CCC4[C@H](C/C=C/c5ccccc5)[C@H](O)CC[C@]4(C)[C@H]3CC[C@]12C (stereo partly drawn) : inactive
CC(C)CCC[C@@H](C)[C@H]1CC[C@H]2[C@@H]3CCC4[C@H](Cc5cccc(F)c5F)[C@H](O)CC[C@]4(C)[C@H]3CC[C@]12C (stereo partly drawn) : inactive
CC(C)CCC[C@@H](C)[C@H]1CC[C@H]2[C@@H]3CCC4[C@H](C/C=C/CO)[C@H](O)CC[C@]4(C)[C@H]3CC[C@]12C (stereo partly drawn) : inactive

* * *

Tested on: Cricetinae gen. sp.
ASSAY_NOTES: Total serum cholesterol level with relative to the control value (366(24)) in hamsters at a dose of 0.2% of diet for 1 week
Type: functional, Cricetulus griseus
Reported Total cholesterol is given for each of the following molecules.
Enter your answer as a number in mg/dL; do not include the unit.

Solved entries:
C=CC[C@H]1C2CC[C@H]3[C@@H]4CC[C@H]([C@H](C)CCCC(C)C)[C@@]4(C)CC[C@@H]3[C@@]2(C)CC[C@H]1O (some centres undefined) : 174
C=CC[C@@H]1C(=O)CC[C@]2(C)[C@H]3CC[C@]4(C)[C@@H]([C@H](C)CCCC(C)C)CC[C@H]4[C@@H]3CC[C@@H]12 : 267
CC(C)CCC[C@@H](C)[C@H]1CC[C@H]2[C@@H]3CCC4[C@H](Cc5ccc(F)cc5)[C@H](O)CC[C@]4(C)[C@H]3CC[C@]12C (some centres undefined) : 181

The molecule identified as `CC(C)CCC[C@@H](C)[C@H]1CC[C@H]2[C@@H]3CC[C@H]4[C@H](Cc5ccccc5)C(=O)CC[C@]4(C)[C@H]3CC[C@]12C` registered its Total cholesterol at 312

* * *

TESTED_SYSTEM: UniProt:P01130
ASSAY_NOTES: Capability of derepressing the transcription of Low density lipoprotein receptor promoter in the presence of 25-hydroxycholesterol in CHO cells measured as maximum activity at 20 ug/mL
Format: cell-based
EXPERIMENTAL_ENDPOINT: MA (%)

Solved entries:
C=C(Cl)C[C@H]1C2CC[C@H]3[C@@H]4CC[C@H]([C@H](C)CC[C@@H](CC)C(C)C)[C@@]4(C)CC[C@@H]3[C@@]2(C)CC[C@H]1O (stereo partly specified) : 120
CC(C)CCC[C@@H](C)[C@H]1CC[C@H]2[C@@H]3CCC4[C@H](Cc5ccc(I)cc5)[C@H](O)CC[C@]4(C)[C@H]3CC[C@]12C (stereo partly specified) : 80
C=C(Br)C[C@H]1C2CC[C@H]3[C@@H]4CC[C@H]([C@H](C)CCCC(C)C)[C@@]4(C)CC[C@@H]3[C@@]2(C)CC[C@H]1O (stereo partly specified) : 131
CC(C)CCC[C@@H](C)[C@H]1CC[C@H]2[C@@H]3CCC4[C@H](Cc5ccc(Br)cc5)[C@H](O)CC[C@]4(C)[C@H]3CC[C@]12C (stereo partly specified) : 57

1. C=CC[C@H]1C2CC[C@H]3[C@@H]4CC[C@H]([C@H](C)CCCC(C)(C)O)[C@@]4(C)CC[C@@H]3[C@@]2(C)CC[C@H]1O (stereo partly specified)
2. C/C=C\C[C@H]1C2CC[C@H]3[C@@H]4CC[C@H]([C@H](C)CCCC(C)C)[C@@]4(C)CC[C@@H]3[C@@]2(C)CC[C@H]1O (stereo partly specified)
Task: Hi, I'm comparing 1 with 2 and wondering which one has the bigger number for MA. Any idea? Give the label under which the chosen entry appears.
Output: 1
(1: 111%, 2: 72%)

* * *

Organism: Mesocricetus auratus
ASSAY_NOTES: Serum cholesterol level change relative to the control value (366(24)) in hamsters at a dose of 0.2% of diet for 1 week
Reported Relative change is given for each of the following compounds.
Enter your answer as a number in %; do not include the unit.

Solved entries:
C=CC[C@@H]1C(=O)CC[C@]2(C)[C@H]3CC[C@]4(C)[C@@H]([C@H](C)CCCC(C)C)CC[C@H]4[C@@H]3CC[C@@H]12 : -27
CC(C)CCC[C@@H](C)[C@H]1CC[C@H]2[C@@H]3CC[C@H]4[C@H](Cc5ccccc5)C(=O)CC[C@]4(C)[C@H]3CC[C@]12C : -15

The compound identified as CC(C)CCC[C@@H](C)[C@H]1CC[C@H]2[C@@H]3CCC4[C@H](Cc5ccc(F)cc5)[C@H](O)CC[C@]4(C)[C@H]3CC[C@]12C (some centres undefined) registered its Relative change at -50

The compound identified as C=CC[C@H]1C2CC[C@H]3[C@@H]4CC[C@H]([C@H](C)CCCC(C)C)[C@@]4(C)CC[C@@H]3[C@@]2(C)CC[C@H]1O (some centres undefined) registered its Relative change at -53

* * *

Tested on: CHO
ASSAY_NOTES: Capability of derepressing the transcription of SV40 promoter in CHO cells by luciferase assay; NA= Not active within the test range 0-20 ug/mL
Format: functional, cell-based
CONDITION_DETAILS: Cricetulus griseus
The source made the active and inactive calls. The rule behind the calls is not given here.
EXPERIMENTAL_ENDPOINT: Activity

C/C=C(\C)C[C@H]1C2CC[C@H]3[C@@H]4CC[C@H]([C@H](C)CCCC(C)C)[C@@]4(C)CC[C@@H]3[C@@]2(C)CC[C@H]1O (stereo not given in full) : inactive
CCCC[C@H]1C2CC[C@H]3[C@@H]4CC[C@H]([C@H](C)CCCC(C)C)[C@@]4(C)CC[C@@H]3[C@@]2(C)CC[C@H]1O (stereo not given in full) : inactive
CC(C)CCC[C@@H](C)[C@H]1CC[C@H]2[C@@H]3CCC4[C@H](Cc5ccc(Cl)cc5)[C@H](O)CC[C@]4(C)[C@H]3CC[C@]12C (stereo not given in full) : inactive
CC(C)CCC[C@@H](C)[C@H]1CC[C@H]2[C@@H]3CCC4[C@H](Cc5ccc(F)cc5)[C@H](O)CC[C@]4(C)[C@H]3CC[C@]12C (stereo not given in full) : inactive
CC(C)CCC[C@@H](C)[C@H]1CC[C@H]2[C@@H]3CCC4[C@H](Cc5ccc(Br)cc5)[C@H](O)CC[C@]4(C)[C@H]3CC[C@]12C (stereo not given in full) : inactive

The molecule identified as CC(C)CCC[C@@H](C)[C@H]1CC[C@H]2[C@@H]3CCC4[C@H](Cc5ccccc5)[C@H](O)CC[C@]4(C)[C@H]3CC[C@]12C (stereo not given in full) registered its Activity at inactive

* * *

TESTED_SYSTEM: UniProt:P01130
ASSAY_NOTES: Capability of derepressing the transcription of human Low density lipoprotein receptor promoter in the presence of 25-hydroxycholesterol in CHO cells by luciferase assay
Format: cell-based
EXPERIMENTAL_ENDPOINT: EC30 (µM)

Solved entries:
C=C(C)C[C@H]1C2CC[C@H]3[C@@H]4CC[C@H]([C@H](C)CCCC(C)C)[C@@]4(C)CC[C@@H]3[C@@]2(C)CC[C@H]1O (some centres not stated) : 2.8
CC(C)CCC[C@@H](C)[C@H]1CC[C@H]2[C@@H]3CCC4[C@H](Cc5ccc(I)cc5)[C@H](O)CC[C@]4(C)[C@H]3CC[C@]12C (some centres not stated) : 2.8
CC(C)CCC[C@@H](C)[C@H]1CC[C@H]2[C@@H]3CCC4[C@H](Cc5ccc(Br)cc5)[C@H](O)CC[C@]4(C)[C@H]3CC[C@]12C (some centres not stated) : 6

A. CC(C)CCC[C@@H](C)[C@H]1CC[C@H]2[C@@H]3CCC4[C@H](Cc5ccc(Cl)cc5)[C@H](O)CC[C@]4(C)[C@H]3CC[C@]12C (some centres not stated)
B. C/C=C(\C)C[C@H]1C2CC[C@H]3[C@@H]4CC[C@H]([C@H](C)CCCC(C)C)[C@@]4(C)CC[C@@H]3[C@@]2(C)CC[C@H]1O (some centres not stated)
C. C=C(Br)C[C@H]1C2CC[C@H]3[C@@H]4CC[C@H]([C@H](C)CCCC(C)C)[C@@]4(C)CC[C@@H]3[C@@]2(C)CC[C@H]1O (some centres not stated)
Task: Sort the compounds on EC30; start with the lowest figure. Ranked list of labels, please, in the requested order.
Output: C, B, A
